Value source: ChEMBL document CHEMBL4346737

# system: Pendrin (Homo sapiens, UniProt O43511)
# Sequence (O43511 whole entry): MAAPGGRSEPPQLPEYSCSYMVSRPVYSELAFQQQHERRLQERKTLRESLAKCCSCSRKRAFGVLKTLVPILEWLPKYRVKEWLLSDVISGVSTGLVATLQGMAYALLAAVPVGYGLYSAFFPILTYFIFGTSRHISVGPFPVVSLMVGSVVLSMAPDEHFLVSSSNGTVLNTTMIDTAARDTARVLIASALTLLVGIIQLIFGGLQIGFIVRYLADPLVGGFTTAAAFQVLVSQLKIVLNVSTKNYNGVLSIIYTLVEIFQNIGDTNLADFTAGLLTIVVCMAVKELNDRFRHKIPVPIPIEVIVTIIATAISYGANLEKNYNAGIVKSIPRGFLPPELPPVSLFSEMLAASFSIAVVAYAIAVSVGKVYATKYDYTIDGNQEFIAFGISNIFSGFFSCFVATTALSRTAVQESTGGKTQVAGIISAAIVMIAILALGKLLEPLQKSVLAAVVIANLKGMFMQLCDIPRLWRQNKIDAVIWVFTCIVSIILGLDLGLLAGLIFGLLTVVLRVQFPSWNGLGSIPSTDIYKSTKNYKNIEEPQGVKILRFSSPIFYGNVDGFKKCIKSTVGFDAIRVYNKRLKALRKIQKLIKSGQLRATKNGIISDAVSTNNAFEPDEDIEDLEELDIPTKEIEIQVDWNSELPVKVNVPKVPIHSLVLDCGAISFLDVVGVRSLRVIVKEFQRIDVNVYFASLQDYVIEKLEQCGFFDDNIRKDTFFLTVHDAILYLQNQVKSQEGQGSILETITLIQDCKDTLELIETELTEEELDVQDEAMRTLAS
# protocol-text: Inhibition of human PDS stably expressed in FRT cells coexpressing EYFP-H148Q/I152L/F46L assessed as reduction in I-/Cl- exchange incubated for 10 mins by fluorescence based assay
test-readout: IC50

1) Cn1nc(COc2cccc(F)c2)c2c1CCN(C(=O)Nc1ccc(Cl)cc1)C2
7 µM
